EC50 for assorted compounds
target_or_test_system: Glycogen synthase kinase-3 beta (Homo sapiens, UniProt P49841)
Sequence (P49841 whole entry): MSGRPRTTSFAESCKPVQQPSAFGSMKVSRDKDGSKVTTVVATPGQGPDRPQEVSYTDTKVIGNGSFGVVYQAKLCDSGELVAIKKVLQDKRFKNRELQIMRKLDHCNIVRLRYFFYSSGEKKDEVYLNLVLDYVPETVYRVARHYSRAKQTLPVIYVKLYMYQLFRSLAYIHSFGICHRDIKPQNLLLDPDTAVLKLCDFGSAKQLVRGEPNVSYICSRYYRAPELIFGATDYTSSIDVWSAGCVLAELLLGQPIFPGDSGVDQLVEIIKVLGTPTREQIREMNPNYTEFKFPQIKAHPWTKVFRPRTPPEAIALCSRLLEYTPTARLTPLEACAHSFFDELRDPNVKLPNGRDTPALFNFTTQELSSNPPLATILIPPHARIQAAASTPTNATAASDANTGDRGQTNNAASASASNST
protocol_summary: concentration-response blocking of human GSK3B – biochemical, luminescence, cell-free homogeneous, retest, dose response (AID 434954)

Some entries whose results are on file:
Entry under test: Cc1ccc(S(=O)(=O)CC(=O)c2cc3cccc(C)c3oc2=O)cc1 . Its EC50 was > 300 µM

Entry under test: CC(C)N1CCc2c(sc(NC(=O)CCS(=O)(=O)c3ccccc3)c2C(N)=O)C1 . Its EC50 was > 300 µM

Entry under test: Cc1ccc(-c2nc(Nc3cccc(O)c3)c3ccccc3n2)cc1 [MLS001196546] . Its EC50 was > 300 µM

Entry under test: O=C1N=C(S)SC1=Cc1ccc(N2CCOCC2)o1 . Its EC50 was 8.5 µM

Entry under test: Cc1cc(NC(=O)CSc2nc(O)c(C#N)c(-c3ccccc3)n2)no1 . Its EC50 was > 300 µM

Entry under test: O=C(CSc1ccc2nnc(-c3ccc(F)cc3)n2n1)N1CCOCC1 . Its EC50 was > 300 µM

More entries:
Entry under test: O=C(CN1C(=O)COc2ccccc21)Nc1ccccc1F [MLS001205921] . Its EC50 was > 300 µM

Entry under test: Cc1ccc(S(=O)(=O)NN=Cc2cn(-c3ccccc3)nc2-c2ccccc2)cc1 . Its EC50 was > 300 µM

Entry under test: COc1cc2c(O)c3c(c(-c4ccc5c(c4)OCO5)c2cc1OC)C(=O)OC3 . Its EC50 was 4.42 µM

Entry under test: OCCNc1nc2nonc2nc1NCCO . Its EC50 was > 300 µM

Entry under test: CC(C)(C)C1CCc2onc(C(=O)Nc3ccc4c(c3)OCO4)c2C1 (configuration not stated) . Its EC50 was > 300 µM

---

target_or_test_system: Glycogen synthase kinase-3 beta (Homo sapiens)
protocol_summary: concentration-response blocking of human GSK3B – biochemical, luminescence, cell-free homogeneous, retest, dose response (AID 434954)
EC50 for assorted molecules

Entry under test: Cc1nc[nH]c1C(=O)NN=Cc1c(Cl)cccc1Cl [MLS001182271] . Its EC50 was 21.8 µM

More entries:
Entry under test: CCOC(=O)C1C(C)=Nc2ncnn2C1c1ccccc1F (configuration not stated) . Its EC50 was > 300 µM

Entry under test: Oc1ccc2oc3c(c2c1)CCCC3 . Its EC50 was > 300 µM

Entry under test: CC1CCCCN1c1cc(C#N)c(C#N)cc1[N+](=O)[O-] (configuration not stated) . Its EC50 was > 300 µM

Entry under test: COc1ccccc1Nc1nc(NCc2ccco2)nc(N)c1[N+](=O)[O-] [SMR000436038] . Its EC50 was > 300 µM

Entry under test: CN1CCN(c2ccc([N+](=O)[O-])cc2Cl)CC1 [SMR000283168] . Its EC50 was > 300 µM

---

target_or_test_system: Glycogen synthase kinase-3 beta (Homo sapiens)
protocol_summary: concentration-response blocking of human GSK3B – biochemical, luminescence, cell-free homogeneous, retest, dose response (AID 434954)
parameter_measured: EC50

Some entries whose results are on file:
Entry under test: CC(=NNC(=S)Nc1c(C)cccc1C)c1cc2ccccc2o1 [SMR000260555] . Its EC50 was > 300 µM

Entry under test: O=C(Nc1sccc1C(=O)N1CCOCC1)c1cccnc1 . Its EC50 was 29.2 µM

Entry under test: O=C(Cc1ccc([N+](=O)[O-])cc1)Nc1ccc2c(c1)C(=O)NC2=O [SMR000291894] . Its EC50 was > 300 µM

Entry under test: COC(=O)c1ccccc1OCCOc1ccccc1C(=O)OC . Its EC50 was > 300 µM

Entry under test: CCN1CCN(c2c(C=O)c(Cl)nc3ccc(OC)cc23)CC1 . Its EC50 was 5.67 µM

# ---- query compound ----
Entry under test: Cc1ccccc1NC(=O)Nc1ccccn1 [1-(2-methylphenyl)-3-pyridin-2-ylurea] . Its EC50 was > 300 µM
